percent inhibition of viability overview
Tested on: YT (IL-2 2.5 ng/mL)
Assay: percent inhibition of viability; higher = more inhibition
Conditions: 72 h; 1 nM
# output: bare number, implied unit %

Query Cn1cnc2c(F)c(Nc3ccc(Br)cc3Cl)c(C(=O)NOCCO)cc21 [Selumetinib] (max concentration tested 10000 nM) yields percent inhibition of viability of 2.15

Short answer for CC(C)Oc1ccc(C(=O)N[C@H](CNC(=O)CN(C)C)Cc2ccc(-c3cn4cccc([C@H](C)O)c4n3)cc2)cc1Cl (max concentration tested 10000 nM) : percent inhibition of viability was 1.62

The compound identified as COC(=O)c1ccc2c(c1)NC(=O)/C2=C(\Nc1ccc(N(C)C(=O)CN2CCN(C)CC2)cc1)c1ccccc1 [Nintedanib] (max concentration tested 10000 nM) registered its percent inhibition of viability at -2.16

Reported percent inhibition of viability of CNC(=O)c1cc(Oc2ccc(NC(=O)Nc3cc(C(C)(C)C)nn3-c3ccc4ncccc4c3)c(F)c2)ccn1 [Rebastinib] (max concentration tested 1000 nM) : -3.15

Lab note: COc1cc2ncnc(Nc3ccc(F)c(Cl)c3)c2cc1OCCCN1CCOCC1 [Gefitinib] (max concentration tested 10000 nM) gave percent inhibition of viability of -3.09

Query CN(C)c1cc2c(cc1Sc1nc3c(N)nccc3n1CCNCC(C)(C)C)OCO2 [CUDC-305] (max concentration tested 10000 nM) yields percent inhibition of viability of -8.17

* * *

Measured percent inhibition of viability accompanies every entry in the list below.
System: YT (IL-2 2.5 ng/mL)
Assay: percent inhibition of viability; higher = more inhibition
Details: 72 h; 10000 nM
Field: numeric (%). Do not append units.

C[C@@H]1C[C@H]2O[C@@H]2/C=C\C=C\C(=O)Cc2c(Cl)c(O)cc(O)c2C(=O)O1 [Radicicol] (max concentration tested 10000 nM): 91.6
C#Cc1cccc(Nc2ncnc3cc4c(cc23)OCCOCCOCCO4)c1 [Icotinib] (max concentration tested 10000 nM): 20.5
CCn1c(-c2nonc2N)nc2cnc(Oc3cccc(NC(=O)c4ccc(OCCN5CCOCC5)cc4)c3)cc21 (max concentration tested 10000 nM): 28.5
CC(C)Oc1ccc(C(=O)N[C@H](CNC(=O)CN(C)C)Cc2ccc(-c3cn4cccc([C@H](C)O)c4n3)cc2)cc1Cl (max concentration tested 10000 nM): 104
CC(=O)c1c(C)c2cnc(Nc3ccc(N4CCNCC4)cn3)nc2n(C2CCCC2)c1=O [Palbociclib] (max concentration tested 10000 nM): 37
COc1cc2c(NC3CCN(C(C)C)CC3)nc(C3CCCCC3)nc2cc1OCCCN1CCCC1 [UNC0638] (max concentration tested 10000 nM): 102

Now turn to the next compound.
// percent inhibition of viability value for COC(=O)C[C@](O)(CCCC(C)(C)O)C(=O)O[C@@H]1C(OC)=C[C@]23CCCN2CCc2cc4c(cc2[C@H]13)OCO4 [Omacetaxine] (max concentration tested 10000 nM) : 108

* * *

Reported percent inhibition of viability values for the following compounds.
System: normal NK cells expanded with K562-aAPC
Experiment: percent inhibition of viability; higher = more inhibition
Settings: 72 h; IL-2 2.5 ng/mL; 250 nM
Please respond with the number in % and leave the unit unwritten.

NCC(=O)Nc1ccc(-n2nc(C(F)(F)F)cc2-c2ccc3c(ccc4ccccc43)c2)cc1 (max concentration tested 25000 nM): 3.22
O=C(c1ccc(/C=C/c2n[nH]c3ccccc23)cc1)N1CCNCC1 [KW-2449] (max concentration tested 2500 nM): -5.26
C[C@@H]1C=C2C(=O)O[C@@H]3CC[C@H](C1)[C@]23O [Galiellalactone] (max concentration tested 25000 nM): -5.56

# context switch: different compound, same percent inhibition of viability
percent inhibition of viability measured on CCN1CCN(Cc2ccc(-c3cc4c(N[C@H](C)c5ccccc5)ncnc4[nH]3)cc2)CC1 [NVP-AEE788] (max concentration tested 2500 nM) = 4.64

* * *

Test system: normal primary NK cells, pool 1 (3 donors), resting (IL-2 0 ng/mL)
Assay: percent inhibition of viability; higher = more inhibition
Conditions: 72 h; 1000 nM
experimental.readout: percent inhibition of viability (%)
Kindly provide the numeric value in % only, without the unit symbol.

Some compounds with recorded percent inhibition of viability:
CCS(=O)(=O)c1cccc(-c2cc(C(=O)NC3CCN(C)CC3)c(C)c3[nH]c4ncc(C)cc4c23)c1 [TAK-901] (max concentration tested 1000 nM): 39.3
CN(c1ccccc1CNc1nc(Nc2ccc3c(c2)CC(=O)N3)ncc1C(F)(F)F)S(C)(=O)=O (max concentration tested 10000 nM): -35.7

API: the following record is the query input.
percent inhibition of viability reported for this compound OC[C@H]1O[C@@H](n2cnc3c2N=CNC[C@H]3O)C[C@@H]1O [Pentostatin] (max concentration tested 10000 nM) : -28.3

* * *

Tested on: normal NK cells expanded with K562-aAPC
Experiment: percent inhibition of viability; higher = more inhibition
Settings: 72 h; IL-2 2.5 ng/mL; 10000 nM
Catalogue of percent inhibition of viability values
Only the number, expressed in %, is required.

See these solved cases before continuing.
OC[C@H]1O[C@@H](n2cnc3c2N=CNC[C@H]3O)C[C@@H]1O [Pentostatin] (max concentration tested 10000 nM): 8.99
COc1cccc2c1c(O)c(C(=O)N(C)c1ccc(C(F)(F)F)cc1)c(=O)n2C [Tasquinimod] (max concentration tested 10000 nM): 14.8
CCc1c2c(nc3ccc(OC(=O)N4CCC(N5CCCCC5)CC4)cc13)-c1cc3c(c(=O)n1C2)COC(=O)[C@]3(O)CC [Irinotecan] (max concentration tested 10000 nM): 61
COc1cc2c(cc1O)CC[C@@H]1[C@@H]2CC[C@]2(C)[C@@H](O)CC[C@@H]12 [2-methoxyestradiol] (max concentration tested 10000 nM): 53

The value of percent inhibition of viability measured for the molecule O=c1cc(N2CCOCC2)oc2c(-c3ccccc3)cccc12 (max concentration tested 100000 nM) turned out to be 39.4

Looking up Cc1cc(Nc2cc(CN3CCOCC3)c3nc(C)c(Cc4ccc(Cl)cc4F)n3n2)n[nH]1 [Gandotinib] (max concentration tested 10000 nM) , I see its percent inhibition of viability listed as 70.5

* * *

// reported percent inhibition of viability per item
Tested on: normal primary NK cells, pool 3 (3 donors) (IL-2 2.5 ng/mL)
Test: percent inhibition of viability; higher = more inhibition
Details: 72 h; 10000 nM
Entry rule: numbers only, all in %.

The reported value for S=c1[nH]cnc2nc[nH]c12 [Mercaptopurine] (max concentration tested 10000 nM) in terms of percent inhibition of viability is 8.16

So for CNC(=O)c1cccc2cc(Oc3ccnc4cc(OCC5(N)CC5)c(OC)cc34)ccc12 [Lucitanib] (max concentration tested 10000 nM) , the logged percent inhibition of viability turned out to be -5.45

Input CN1CCN(c2cc(C(=O)Nc3ccc4c(c3)-c3c(c(C(N)=O)nn3-c3ccc(F)cc3)CC4)c(Cl)cn2)CC1 [PHA 408] (max concentration tested 10000 nM) . Output percent inhibition of viability: 101

Consider CC1=C(/C=C/C(C)=C/C=C/C(C)=C/C(=O)O)C(C)(C)CCC1 [Tretinoin] (max concentration tested 10000 nM) . Its measured percent inhibition of viability is -8.57

percent inhibition of viability reported for this compound Oc1ncc(N(CCCl)CCCl)c(O)n1 [Uramustine] (max concentration tested 10000 nM) : 8.5

Notebook: CCn1c(-c2nonc2N)nc2c(C#CC(C)(C)O)ncc(OC[C@H]3CCCNC3)c21 (max concentration tested 10000 nM) , percent inhibition of viability read as 66.5

Recorded result, O=C(Nc1ccc2[nH]nc(-c3ccncc3)c2c1)[C@@H]1CCN(CC(=O)N2CCN(c3ccc(-c4ncccn4)cc3)CC2)C1 (max concentration tested 10000 nM) , percent inhibition of viability: 20

// COc1cc(F)c(F)c(Nc2ccc(I)cc2F)c1NS(=O)(=O)C1(C[C@H](O)CO)CC1 [Refametinib] (max concentration tested 10000 nM) : percent inhibition of viability value = 28.4

* * *

System: DERL-7 (IL-2 2.5 ng/mL)
Assay: drug sensitivity score (DSS) (DSS units); higher = more sensitive; extreme values may be limits of the assay
Conditions: 72 h
Would you mind labelling by drug sensitivity score? At or over 1 is Y, under is N.

Examples from the recorded data:
O=S(=O)(c1cccc2c(O)nccc12)N1CCCNCC1 [Hydroxyfasudil] (max concentration tested 37500 nM): Y
COCC1(CO)C(=O)C2CCN1CC2 (stereo unspecified) [APR-246] (max concentration tested 10000 nM): N
COc1cccc2c1c(O)c(C(=O)N(C)c1ccc(C(F)(F)F)cc1)c(=O)n2C [Tasquinimod] (max concentration tested 10000 nM): N
COC(=O)C[C@](O)(CCCC(C)(C)O)C(=O)O[C@@H]1C(OC)=C[C@]23CCCN2CCc2cc4c(cc2[C@H]13)OCO4 [Omacetaxine] (max concentration tested 10000 nM): Y
COC(=O)c1ccc2c(c1)NC(=O)/C2=C(\Nc1ccc(N(C)C(=O)CN2CCN(C)CC2)cc1)c1ccccc1 [Nintedanib] (max concentration tested 10000 nM): Y

--- query ---
[in] Determine whether measured drug sensitivity score meets or exceeds 1 for CCN1CCN(Cc2ccc(-c3cc4c(N[C@H](C)c5ccccc5)ncnc4[nH]3)cc2)CC1 [NVP-AEE788] (max concentration tested 2500 nM)
[out] Y
